Entry source: ChEMBL document CHEMBL4145528

What log10 IC50 was measured for each of the following?
# System: HeLa
# assay info: Cytotoxicity against human HeLa cells assessed as reduction in cell viability after 24 hrs by MTT assay
# Format: functional, cell-based
log10 IC50, µM

log10 IC50 in this record for `CN1C/C(=C\c2ccc(C#N)cc2)C(=O)/C(=C/c2ccc(Cl)cc2Cl)C1` : 0.89

get_value(item= `CN1C/C(=C\c2ccc(C(F)(F)F)cc2)C(=O)/C(=C/c2ccccc2F)C1` , readout=log10 IC50) returns 0.82

According to the records, this compound `COc1cc(/C=C2\CN(C)C/C(=C\c3ccc(C#N)cc3)C2=O)cc(OC)c1` displays log10 IC50 of 0.53

Documented log10 IC50 of `CN1C/C(=C\c2ccc(Br)cc2)C(=O)/C(=C/c2ccc(C#N)cc2)C1` : 0.77

Measured log10 IC50, `COc1cc(/C=C/C(=O)CC(=O)/C=C/c2ccc(O)c(OC)c2)ccc1O` : 1.50

compound `COc1cc(/C=C2\CN(C)C/C(=C\c3cccc([N+](=O)[O-])c3)C2=O)cc(OC)c1OC` , log10 IC50 observed: 0.74

Lookup result for `COc1cc(/C=C2\CN(C)C/C(=C\c3ccc(Br)cc3)C2=O)cc(OC)c1` ; measured log10 IC50: 0.77

// log10 IC50 value for `CN1C/C(=C\c2cccc([N+](=O)[O-])c2)C(=O)/C(=C/c2ccc(Cl)c(Cl)c2)C1` : 0.96

// `CN1C/C(=C\c2ccc(C#N)cc2)C(=O)/C(=C/c2ccccc2F)C1` : log10 IC50 value = 0.13
